# credit: patent US20100292260A1

tested on: MT-4 cells; assay: Cytotoxicity in mock-infected MT-4 cells (MTT); assay type: cell-based
So I've got a bunch of molecules here, and I need their CC50 values.
Answers are plain numbers, in µM.

# molecule, system.tested, measure.unit, reported.result
data = [
    ("C=Cc1cc(N(CC)CC)nc(S(=O)(=O)Cc2ccc(OC)cc2)n1 [8′]", "MT-4 cells", "µM", 42.9),
]

Lookup: So what does the record say about CC50 for C=Cc1cc(N(CC)CC)nc(SCc2ccc(OC)cc2)n1 [6′a] ?
Found: 33

* * *

target: HIV-1 (recombinant) reverse transcriptase (Human immunodeficiency virus type 1 group M subtype B); construct: 20-50 nM HIV-1 (recombinant) reverse transcriptase; assay: Enzyme test: reverse transcription reaction in vitro with recombinant RT, wild type; assay type: biochemical; conditions: Table 2; enzyme test; read-out: WT
experimental.readout: pIC50
One number for each entry, as −log10 of the molar value.

The following compounds have reported results that may help.
# compound, experimental.readout, reported.result
data = [
    ("COc1ccc(C=CCSc2nc(C(C)c3c(Cl)cccc3Cl)c(C)c(=O)[nH]2)cc1 (stereo not shown) [Compound 26g]", "pIC50", 7.74),
    ("CCc1c(C(C)c2c(F)cccc2F)nc(SCC=Cc2ccc([N+](=O)[O-])cc2)[nH]c1=O (stereo not shown) [Compound 26q]", "pIC50", 8.05),
    ("COc1ccc(C=CCSc2nc(Cc3c(F)cccc3F)c(C)c(=O)[nH]2)cc1 [Compound 26l]", "pIC50", 6.60),
]

Lookup: So what does the record say about pIC50 for COc1ccc(/C=C/CSc2nc(Cc3c(Cl)cccc3Cl)c(C)c(=O)[nH]2)cc1 [Compound 26a] ?
Found: 8.15

* * *

Target: HIV-1 (recombinant) reverse transcriptase (Human immunodeficiency virus type 1 group M subtype B)
Construct: 20-50 nM HIV-1 (recombinant) reverse transcriptase
Assay: Enzyme test: reverse transcription reaction in vitro with recombinant RT, wild type
Type: biochemical
Details: Table 2; enzyme test; read-out: WT
Protocol: In a final volume of 25 microlitres the following reagents were mixed: 50 mM Tris-HCl pH 7.5, 0.25 mg/ml BSA, 0.5 mM DTT, 20-50 nM HIV-1 (recombinant) reverse transcriptase, nucleotide substrate dTTP marked radioactively (^3H, 4 Ci/mmol) and nucleic acid (poly(rA)/oligo(dT)). The concentrations of dTTP and poly(rA)/oligo(dT) in standard conditions were 5 μM and 0.5 μM, respectively. […]
So I've got a bunch of compounds here, and I need their IC50 values.
Numbers only, in µM.

The following compounds have reported results that may help.
# compound, IC50 [µM]
data = [
    ("CCc1c(C(C)c2c(F)cccc2F)nc(SCC=Cc2ccc(C#N)cc2)[nH]c1=O (stereo not shown) [Compound 26r]", 0.048),
    ("Cc1c(C(C)c2c(F)cccc2F)nc(SCC=Cc2ccc([N+](=O)[O-])cc2)[nH]c1=O (stereo not shown) [Compound 26m]", 0.283),
    ("Cc1c(Cc2c(Cl)cccc2Cl)nc(SCC=Cc2ccc(N(C)C)cc2)[nH]c1=O [Compound 26d]", 0.788),
]

Continue with the compound presented below.
Lookup: So what does the record say about IC50 for Cc1c(C(C)c2c(Cl)cccc2Cl)nc(SCC=Cc2ccc([N+](=O)[O-])cc2)[nH]c1=O (stereo not shown) [Compound 26h] ?
Found: 0.102
